Reported Kd by item:
measured_on: T1, extracellular domain of activin receptor type IIB (ActRIIBecd), biotinylated (Homo sapiens (Human), UniProt Q13705 27-117, amino-biotinylated with amine-PEG3-Biotin)
T1 construct: immobilised on a streptavidin-coated sensor chip; also called biotinylated ActRIIBecd; extracellular domain of ActRIIB
T1 sequence: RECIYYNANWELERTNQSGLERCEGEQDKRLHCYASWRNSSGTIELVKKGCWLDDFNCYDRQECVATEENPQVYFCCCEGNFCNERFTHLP
protocol_details: Mean KD column of Table 5; method not restated (BIAcore as Example 5); species also listed in Table 4

binder	Kd / nM
SEQ ID NO: 300, cysteine pairs C23-C27^a, C65-C65^b, C79-C112^b, C80-C114^b (designed binder, disulfides C23-C27 (intra), C65-C65 (inter), C79-C112 (inter), C80-C114 (inter), homodimer by intermolecular disulfide) VDFKDVGWNDHAVAPPGYHAFYCHGECPFPLADHLNSDNHAIVQTKVNSVGQAKRKGYKRLKSSCKRHPLYNSKDPKACCVPTELSAPSPLYLDENEKPVLKNYQDMVVHGCGCR	6.44
SEQ ID NO: 300, cysteine pairs C23-C27^a, C65-C65^b, C79-C112^a, C80-C114^a (designed binder, disulfides C23-C27 (intra), C65-C65 (inter), C79-C112 (intra), C80-C114 (intra), homodimer by intermolecular disulfide) VDFKDVGWNDHAVAPPGYHAFYCHGECPFPLADHLNSDNHAIVQTKVNSVGQAKRKGYKRLKSSCKRHPLYNSKDPKACCVPTELSAPSPLYLDENEKPVLKNYQDMVVHGCGCR	5.14
SEQ ID NO: 248, cysteine pairs C67-C71^a, C8-C43^a, C9-C41^a (designed binder, disulfides C67-C71 (intra), C8-C43 (intra), C9-C41 (intra)) NSKDPKACCVPTELSAPSPLYLDENEKPVLKNYQDMVVHGCGCRVDFKDVGWNDHAVAPPGYHAFYCHGECPFPLADHLNSDNHAIVQTKVNSV	20
SEQ ID NO: 206, cysteine pairs C67-C71^a, C8-C41^a, C9-C43^a (designed binder, disulfides C67-C71 (intra), C8-C41 (intra), C9-C43 (intra)) NSKIPKACCVPTELSAISMLYLDENEKVVLKNYQDMVVEGCGCRVDFSDVGWNDWIVAPPGYHAFYCHGECPFPLADHLNSTNHAIVQTLVNSV	15.5
